Origin of the recorded values: patent US5466440A

- assay name: Aqueous solubility
- Assay type: physicochemical
- recorded conditions: water, Table 3
measurement type: solubility (µg/mL)
Your answer is read as µg/mL, so omit the unit and give the number.

Known solubility results, listed for orientation:
>  <smiles str>
CC(=O)Nc1c(I)c(NC(C)=O)c(I)c(C(=O)OCCCCCC(=O)OC(C)C)c1I

>  <measurement units>
µg/mL

>  <solubility>
1

$$$$
>  <smiles str>
CCOC(=O)c1c(I)c(NC(C)=O)c(I)c(C(=O)OCC)c1I

>  <measurement units>
µg/mL

>  <solubility>
1

$$$$

Now take the following compound into account.
Item: CC(=O)Nc1c(I)c(NC(C)=O)c(I)c(C(=O)OCc2ccc(C(=O)OC(C)C)cc2)c1I | solubility: 1
